Data origin: patent US8133884B2

Target: HCV NS5B (Hepatitis C virus genotype 1b, UniProt Q9WMX2)
Construct: The protein was expressed with an 18 amino acid C-terminal truncation to enhance the solubility; made in house; host or cells: E. coli BL21(DE3)
Sequence (Q9WMX2 2420-2992): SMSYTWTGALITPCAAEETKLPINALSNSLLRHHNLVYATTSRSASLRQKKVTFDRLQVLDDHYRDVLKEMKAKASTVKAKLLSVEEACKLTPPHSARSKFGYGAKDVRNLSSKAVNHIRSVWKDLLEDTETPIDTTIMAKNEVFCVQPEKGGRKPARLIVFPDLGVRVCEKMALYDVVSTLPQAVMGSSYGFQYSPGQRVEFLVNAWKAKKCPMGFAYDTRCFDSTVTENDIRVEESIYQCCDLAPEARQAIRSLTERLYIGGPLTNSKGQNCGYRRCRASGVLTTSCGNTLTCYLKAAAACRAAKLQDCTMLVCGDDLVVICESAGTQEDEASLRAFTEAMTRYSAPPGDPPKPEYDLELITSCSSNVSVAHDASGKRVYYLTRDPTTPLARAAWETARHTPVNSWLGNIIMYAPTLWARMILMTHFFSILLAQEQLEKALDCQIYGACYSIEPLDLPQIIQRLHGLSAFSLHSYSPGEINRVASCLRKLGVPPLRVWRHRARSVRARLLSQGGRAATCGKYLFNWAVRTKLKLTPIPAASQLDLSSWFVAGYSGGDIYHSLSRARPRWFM
Test: Modified HCV NS5B RdRp enzyme assay (preincubation protocol)
Assay type: biochemical
Conditions: exact value
In this section we review reported pIC50 values for a set of compounds.
The value called pIC50 is obtained by taking minus log10 of the concentration in mol/L.

COc1ccc2c(c1)C=C(c1c(C(=O)N3C4COCC3COC4)cnn1C1CCN(C)CC1)Cn1c-2c(C2CCCCC2)c2ccc(C(=O)NS(=O)(=O)C(C)C)cc21 | 8.12
COc1ccc2c(c1)C=C(c1c(C(=O)N3C[C@@H](C)O[C@@H](C)C3)cnn1-c1nc3ccccc3[nH]1)Cn1c-2c(C2CCCCC2)c2ccc(C(=O)NS(=O)(=O)C(C)C)cc21 | 8.05
COc1ccc2c(c1)C=C(c1c(C(=O)N3C4CCC3CC(C)(O)C4)cnn1C1CCN(C)CC1)Cn1c-2c(C2CCCCC2)c2ccc(C(=O)NS(=O)(=O)C(C)C)cc21 (stereo not drawn) | 7.02
COc1ccc2c(c1)C=C(c1c(C(=O)N3CCOCC3)ncn1C1CCC1)Cn1c-2c(C2CCCCC2)c2ccc(C(=O)NS(=O)(=O)C(C)C)cc21 | 8.01

Name the recorded pIC50 of the compound listed here: CCN1C[C@@H]2C[C@H]1CN2C(=O)c1c(C)nn(C2CCC2)c1C1=Cc2cc(OC)ccc2-c2c(C3CCCCC3)c3ccc(C(=O)NS(=O)(=O)N(C)C)cc3n2C1
8.47

Using the record for COc1ccc2c(c1)C=C(c1ncn(C3CC3)c1C(=O)N1CCOCC1)Cn1c-2c(C2CCCCC2)c2ccc(C(=O)NS(=O)(=O)C(C)C)cc21 , state its measured pIC50.
8.62

Identify pIC50 associated with the compound COc1ccc2c(c1)C=C(c1c(C(=O)N3C[C@@H](C)O[C@@H](C)C3)cnn1-c1cc[nH]c(=O)c1)Cn1c-2c(C2CCCCC2)c2ccc(C(=O)NS(=O)(=O)C(C)C)cc21
8.05

Specify reported pIC50 for the compound shown: COc1ccc2c(c1)C=C(c1c(C(=O)N3C4CCCC3COC4)cnn1-c1ccncc1C)Cn1c-2c(C2CCCCC2)c2ccc(C(=O)NS(=O)(=O)C(C)C)cc21
8.37

Note pIC50 for the compound shown: COc1ccc2c(c1)C=C(c1c(C(=O)N3CCCOCC3)cnn1C1CCC1)Cn1c-2c(C2CCCCC2)c2ccc(C(=O)NS(=O)(=O)C(C)C)cc21
8.27

---

System: HCV replicon
Assay: HCV replicon assay (FRET or luciferase reporter)
Format: cell-based
Conditions: Hepatitis C virus, one of the methods described, class symbol
pEC50: −log10 of the molar value.
readout.kind: pEC50

Report pEC50 from HCV replicon testing of COc1ccc2c(c1)C=C(c1c(C(=O)N3CC(F)(F)C3)cnn1C1CCC1)Cn1c-2c(C2CCCCC2)c2ccc(C(=O)NS(=O)(=O)C(C)C)cc21
6.30 to 8.77

Report pEC50 under test system HCV replicon for COc1ccc2c(c1)C=C(c1c(C(=O)N3CCOCC3)ncn1C1CC1)Cn1c-2c(C2CCCCC2)c2ccc(C(=O)NS(=O)(=O)C(C)C)cc21 .
6.30 to 8.77

Lab note: HCV replicon assay, enter pEC50 for COc1ccc2c(c1)C=C(c1c(C(=O)N3C4CCC3CN(C)C4)c(C)nn1C1CCC1)Cn1c-2c(C2CCCCC2)c2ccc(C(=O)NS(=O)(=O)C(C)C)cc21 here
6.30 to 8.77
